target: A*03:01 (human), P04439; conditions: modification not given
quantity: IC50 (nM)

binder="ALKLSWFKK [SEQ ID NO: 311 serotype 1]" val=42
